# assayNotes: gradient 5% acetonitrile 3 min, to 50% in 2 min, to 85% in 15 min, held 3 min, 100 µL/min
# measurementConditions: column: Zorbax Extend-C18 2.1 x 50 mm; eluents: water / acetonitrile, 0.1% formic acid

- molecule: "Cc1ncsc1CN1CCC(Oc2ccccc2-c2nc(C3CC3)no2)C1 (stereo not given)"
  RP-LC retention time: "653 s"
- molecule: "Cc1cc(C)c2sc(N3CCN(C(=O)C4CCCN(S(C)(=O)=O)C4)CC3)nc2c1 (stereo not given)"
  RP-LC retention time: "787 s"
- molecule: "CSc1cccc(NC(=O)N(C)Cc2nc3cc(C(=O)N(C)C)ccc3n2C)c1"
  RP-LC retention time: "626 s"
- molecule: "Cc1ccc(CN2CCN(CC(=O)N3CCN(Cc4ccccc4)CC3)C(=O)C2=O)cc1"
  RP-LC retention time: "640 s"
- molecule: "Nc1nc(CN2CCN(c3ccccn3)CC2)nc(Nc2ccc(Oc3ccccc3)cc2)n1"
  RP-LC retention time: "669 s"
